Overview of recorded growth inhibition for various compounds
# experimental_protocol: Restrictive medium S. cerevisiae growth inhibition, OD615, pilot screen of yeast lifespan reduction project, restrictive growth control (AID 706);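 further: modified DeaD lifespan yeast strain shifted to restrictive glucose medium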
# condition_description: OD615, 48 h, at 10 µM, stronger effect = higher value
Calls of active or inactive are those of the source.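 How the source made its calls: active means growth inhibition above a set limit, 3 SD over mean compound inhibition, in both replicates (cut at about 43% in these data); inconclusive means above the limit in only one replicate; inactive means at or below the limit in both replicates.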

Sample records with growth inhibition:
COc1ccc(Oc2ccc(S(=O)(=O)N3CCCCC3)cc2S(=O)(=O)N2CCCCC2)cc1: -0.32% (inactive)
CC(=O)NCC(=O)N(c1c(C)n(C)n(-c2ccccc2)c1=O)C1(C(=O)NC2CCCC2)CCCCC1: -0.075% (inactive)
COc1ccc(C2C(C(=O)NCC3CCCO3)c3cc(OC)c(OC)cc3C(=O)N2C)cc1OC (stereo not drawn): -13.4% (inactive)

Query (compound): O=C(C1CCN(S(=O)(=O)c2cccc3cccnc23)CC1)N1CCN(c2ccccc2)CC1 ; field requested: growth inhibition
16.9% (inactive)

Recorded growth inhibition of CCOC(=O)c1c(C)n(C)c2ccc(OCC(O)CN3CCCCCC3)cc12 (stereo not drawn) , please.
-3.17% (inactive)

Would you mind telling me what growth inhibition value was observed for Cc1ccc(N(C(=O)CC2NC(=O)NC2=O)C2(C(=O)NC3CCCC3)CCCCC2)cc1 (stereo not drawn) ?
-19.7% (inactive)

Need growth inhibition, item Cn1c(=O)oc2cc(S(=O)(=O)N3CCC(C(=O)NCc4cccs4)CC3)ccc21
4.04% (inactive)

---

# experimental_protocol: growth suppression of beta-catenin knockout HCT116, pilot screen, human colon tumor cells (AID 823);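 further: 0% = wells killed by 20 µM Hyamine and 100% = untreated DMSO cell wells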
# condition_description: CellTiter-Glo, 60 h, at 10 µM, stronger effect = lower value
Results filed as inconclusive are left out.
parameter_measured: viability (%)
Only the number, expressed in %, is required.

CCOC(=O)C(CCC#N)(CCC#N)C(=O)OCC: 95.9
Cc1ccc(C)c(-n2c(Cc3cc(=O)[nH]c(=O)[nH]3)nnc2SC(C)C)c1: 97.7
CC(=O)c1ccc(OCC(O)CN2CCOCC2)cc1 (configuration not stated): 103
COc1ccc(Nc2nc(C)cc(C)c2C#N)cc1OC: 107
CCOc1ccccc1C1N(c2ccc(OC)cc2)C(=O)C2CCCN21 (configuration not stated): 99.8
O=C(Nc1cccc2c1CCCC2)c1ccc(Br)o1: 79.6
CCOc1ccc(C2CC(c3ccc(F)cc3)Nc3nc(N)nn32)cc1 (configuration not stated): 105
COc1ccc(OC)c2[nH]c(=O)c(CCNC(=O)c3cc4ccccc4o3)cc12: 87.8
COc1cccc(C2c3c(oc4ccccc4c3=O)C(=O)N2c2ccccn2)c1 (configuration not stated): 92.4
COc1ccccc1CNC(=O)CN1CCN(Cc2ccc(Cl)cc2)C1=O: 98.3

Recorded viability for COc1ccc(C2C(C(=O)NC(C)C)c3ccccc3C(=O)N2C)cc1OC (configuration not stated) , please?
105

So what does the record say about viability for O=C1CC(c2nc3ccccc3[nH]2)CN1Cc1ccccc1 (configuration not stated) ?
101

Value lookup for viability; key = COc1ccc(CNC(=O)c2cnc3scc(C)n3c2=O)cc1
102

So what's the measured viability for this one? Cc1ccc(N(CC(=O)NC2CCC(C)CC2)S(=O)(=O)c2cccnc2)cc1 (configuration not stated)
98.3

GET /values?readout=viability&item= O=C(c1ccccc1)c1ccc(OC(=O)N2CCOCC2)cc1
109

What does the data say about its viability? Entry: COc1ccc2oc(C(=O)C3CC3)c(NC(=O)CCCN3C(=O)c4ccccc4C3=O)c2c1
102

Report viability for CC(=O)C(Sc1ccc2nnc(-c3ccc(C)cc3)n2n1)C(C)=O please.
101

So what does the record say about viability for CCCc1ccc(Oc2c(-c3ccc(O)c(C)c3O)n[nH]c2C)cc1 ?
72.3

---

# experimental_protocol: reversal of MRP1-mediated doxorubicin resistance, pilot screen, H69AR cells, doxorubicin co-treatment (AID 601)
# condition_description: H69AR cells, CellTiter-Glo, 72 h; compound alone cytotoxicity; at 10 µM
Listed molecules paired with reported viability

COc1ccc([C@@H]2Sc3ccccc3N(CCN(C)C)C(=O)[C@@H]2OC(C)=O)cc1: 92.1%
CCOc1cccc(C(=O)N(Cc2ccc(F)cc2)C2CCS(=O)(=O)C2)c1 (stereo unspecified): 86.3%
CCCCN(C)C(=O)CS(=O)(=O)Cc1nc(-c2cccc(OC)c2)oc1C: 99.9%
O=C(CSc1ncnc2ccccc12)NCCCO: 103%
CCCn1c(C)cc(C(=O)COc2ncnc3sccc23)c1C: 63.8%

// query viability value for entry O=C(Nc1ccccc1C(=O)N1CCCCCC1)c1cccc(S(=O)(=O)N2CCOCC2)c1
95.5%

Recorded viability for Cc1ccc(C)n1NC(=O)c1ccco1 , please?
94.8%

Query (molecule): CCOC(=O)N1CCN(S(=O)(=O)c2cc(Cl)ccc2Cl)CC1 ; field requested: viability
85%

Suppose we examine the molecule Cc1ccc(Cn2c(NCCc3ccccc3)nc3c2c(=O)n(C)c(=O)n3C)cc1 ; what viability value has been reported?
91.9%

Report viability for Cc1cc(C)n(-c2nc3c(c(=O)n(Cc4ccc(Cl)c(Cl)c4)c(=O)n3C)n2C)n1 please.
95.6%

Find the recorded viability belonging to CCc1nc(NCCCN2CCOCC2)c2oc3ccccc3c2n1 and report it.
89.1%

Form field: reported viability of NC(=O)C(Cc1ccccc1)NS(=O)(=O)c1ccc(N2CCCC2=O)cc1 (stereo unspecified)
101%

---

# experimental_protocol: reversal of MRP1-mediated doxorubicin resistance, pilot screen, H69AR cells, doxorubicin co-treatment (AID 601)
# condition_description: H69AR cells + 2 uM doxorubicin, CellTiter-Glo, 72 h; at 10 µM; stronger effect = higher value
Readings of differential viability (reversal) for the listed compounds
Value expressed in %; do not type the unit.

CCCSc1nc2c(cnn2-c2ccc(Cl)cc2)c(=O)[nH]1: -3.71

Request the reported differential viability (reversal) associated with Cc1ccc(NC(=O)CNc2cccc(C)c2C)c(C)c1
10.1

Need differential viability (reversal), item Cc1oc2c(CN3CCOCC3)c(O)ccc2c(=O)c1-c1ccc(Br)cc1
4.38

Name the recorded differential viability (reversal) for COCCNC(=O)C(c1ccc(O)cc1)N(Cc1ccco1)C(=O)CCC(=O)Nc1nccs1 (stereo not given) .
11.1

---

# experimental_protocol: reversal of MRP1-mediated doxorubicin resistance, pilot screen, H69AR cells, doxorubicin co-treatment (AID 601)
# condition_description: H69AR cells, CellTiter-Glo, 72 h; compound alone cytotoxicity; at 10 µM
parameter_measured: viability (%)
Field: numeric (%). Do not append units.

# example entries with known answers
Cc1cc(C(F)F)n2ncc(C(=O)NC3CCCCCC3)c2n1: 89.9
CCOC(=O)C1CCN(c2c(NCCN3CCN(c4ccccc4)CC3)c(=O)c2=O)CC1: 99.1
Cc1ccc2oc(-c3ccccc3C(=O)O)cc(=O)c2c1: 101

Could you tell me which viability is on file for CCN(CC)CCN1C(=O)Cn2c(C)c(C)c3cccc1c32 ?
84.6

Given CCOC(=O)c1ccc(NC(=O)CCc2nc(-c3cccc(C)c3)no2)cc1 , state its recorded viability.
86.2

---

# experimental_protocol: viability gain of MRP-1-high H69AR cells under doxorubicin, pilot screen, MRP-1 activator project, CellTiter-Glo, duplicate (AID 807);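 further: compound pretreatment 18-22 h then 72 h combined with doxorubicin; 0% = doxorubicin alone and 100% = vehicle without doxorubicin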
# condition_description: H69AR viability with doxorubicin, CellTiter-Glo luminescence; at 10 µM; stronger effect = higher value
parameter_measured: viability increase (%)
Write it as a number; the unit % goes unstated.

Would you please look over these solved cases?
CC(C)CC(=O)Nc1c2c(nn1-c1ccc(F)cc1)CSC2: -1.7
CC(C)(C)N1C(=O)c2ccc(C(=O)Nc3nccs3)cc2C1=O: -0.27
Cc1ccc(C(=O)NCCNC(=O)CN2CCCC2)cc1: -0.66
COc1ccc2c(c1)[nH]c1c(N3CCN(Cc4ccc5c(c4)OCO5)CC3)ncnc12: -5.9

Can you look up the measured viability increase of c1ccc(N2CCN(C3CCSC3)CC2)cc1 (stereo unspecified) for me?
1.11

---

Readings of Her2 level for the listed compounds
# assayed_system: Receptor tyrosine-protein kinase erbB-2 (Homo sapiens) (UniProt P04626)
# Sequence (P04626 whole entry, looked up): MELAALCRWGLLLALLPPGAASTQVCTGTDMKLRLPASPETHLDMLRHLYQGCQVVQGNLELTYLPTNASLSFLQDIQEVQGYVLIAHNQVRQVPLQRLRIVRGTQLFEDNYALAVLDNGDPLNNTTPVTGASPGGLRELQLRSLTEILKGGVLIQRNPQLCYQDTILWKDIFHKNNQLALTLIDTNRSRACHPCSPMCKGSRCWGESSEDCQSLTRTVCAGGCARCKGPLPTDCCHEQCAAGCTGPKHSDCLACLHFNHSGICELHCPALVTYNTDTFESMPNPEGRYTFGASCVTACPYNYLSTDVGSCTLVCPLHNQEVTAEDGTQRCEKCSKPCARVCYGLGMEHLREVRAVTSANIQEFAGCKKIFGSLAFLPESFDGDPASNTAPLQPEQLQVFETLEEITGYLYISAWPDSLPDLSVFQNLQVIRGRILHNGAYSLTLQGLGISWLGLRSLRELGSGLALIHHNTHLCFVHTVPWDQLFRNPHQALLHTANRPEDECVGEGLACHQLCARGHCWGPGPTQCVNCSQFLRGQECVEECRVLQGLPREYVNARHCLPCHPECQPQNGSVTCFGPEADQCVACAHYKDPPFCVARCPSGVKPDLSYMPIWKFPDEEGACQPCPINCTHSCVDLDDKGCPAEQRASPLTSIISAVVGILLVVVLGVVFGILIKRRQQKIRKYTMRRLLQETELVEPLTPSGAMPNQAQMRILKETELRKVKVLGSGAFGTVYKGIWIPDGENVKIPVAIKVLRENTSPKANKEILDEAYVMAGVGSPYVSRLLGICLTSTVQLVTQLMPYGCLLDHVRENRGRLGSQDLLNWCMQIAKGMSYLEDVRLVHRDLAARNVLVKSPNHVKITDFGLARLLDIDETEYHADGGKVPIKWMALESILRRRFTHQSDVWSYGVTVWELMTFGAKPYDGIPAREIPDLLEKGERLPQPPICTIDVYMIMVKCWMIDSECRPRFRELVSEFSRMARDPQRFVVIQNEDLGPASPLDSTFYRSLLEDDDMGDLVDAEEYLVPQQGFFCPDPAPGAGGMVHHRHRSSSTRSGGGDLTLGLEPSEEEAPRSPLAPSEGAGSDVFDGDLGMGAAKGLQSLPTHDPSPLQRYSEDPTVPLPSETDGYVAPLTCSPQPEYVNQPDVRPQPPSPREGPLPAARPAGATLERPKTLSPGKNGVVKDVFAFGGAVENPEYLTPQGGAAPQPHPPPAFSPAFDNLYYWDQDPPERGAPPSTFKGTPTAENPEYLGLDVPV
# experimental_protocol: reducers of endogenous Her2 protein level, primary screen, SKBR3 breast tumor cells, AlphaScreen, ATP viability (AID 461);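 further: lower value means less Her2 protein in the cells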
# condition_description: 18-24 h, at 10 µM, stronger effect = lower value
Form entry: value (%) — number only.

Past entries and their recorded results:
O=C(NCc1ccccc1)C1CCCN1S(=O)(=O)c1cccc2cccnc12 (stereo unspecified): 99.5
O=C(C1CCCN(S(=O)(=O)c2cnc[nH]2)C1)N1CCN(c2ccc(Cl)cc2)CC1 (stereo unspecified): 93
CCS(=O)(=O)Nc1ccc(C(=O)CC2(O)C(=O)Nc3ccccc32)cc1 (stereo unspecified): 91
Cc1ccc(CN2C(=O)CCC2C(=O)NCC2CCCO2)cc1 (stereo unspecified): 81

Entry CCC1c2ccc(C)n2CCN1C(=O)Nc1ccccc1OC (stereo unspecified) : reported Her2 level = ?
69.5

Returns the measured Her2 level for the input compound. Input: CN(C)c1cccc2c(S(=O)(=O)Nc3ccccn3)cccc12
95.5
